# subject of test: AHR (Homo sapiens)
# Sequence (P35869 11-848): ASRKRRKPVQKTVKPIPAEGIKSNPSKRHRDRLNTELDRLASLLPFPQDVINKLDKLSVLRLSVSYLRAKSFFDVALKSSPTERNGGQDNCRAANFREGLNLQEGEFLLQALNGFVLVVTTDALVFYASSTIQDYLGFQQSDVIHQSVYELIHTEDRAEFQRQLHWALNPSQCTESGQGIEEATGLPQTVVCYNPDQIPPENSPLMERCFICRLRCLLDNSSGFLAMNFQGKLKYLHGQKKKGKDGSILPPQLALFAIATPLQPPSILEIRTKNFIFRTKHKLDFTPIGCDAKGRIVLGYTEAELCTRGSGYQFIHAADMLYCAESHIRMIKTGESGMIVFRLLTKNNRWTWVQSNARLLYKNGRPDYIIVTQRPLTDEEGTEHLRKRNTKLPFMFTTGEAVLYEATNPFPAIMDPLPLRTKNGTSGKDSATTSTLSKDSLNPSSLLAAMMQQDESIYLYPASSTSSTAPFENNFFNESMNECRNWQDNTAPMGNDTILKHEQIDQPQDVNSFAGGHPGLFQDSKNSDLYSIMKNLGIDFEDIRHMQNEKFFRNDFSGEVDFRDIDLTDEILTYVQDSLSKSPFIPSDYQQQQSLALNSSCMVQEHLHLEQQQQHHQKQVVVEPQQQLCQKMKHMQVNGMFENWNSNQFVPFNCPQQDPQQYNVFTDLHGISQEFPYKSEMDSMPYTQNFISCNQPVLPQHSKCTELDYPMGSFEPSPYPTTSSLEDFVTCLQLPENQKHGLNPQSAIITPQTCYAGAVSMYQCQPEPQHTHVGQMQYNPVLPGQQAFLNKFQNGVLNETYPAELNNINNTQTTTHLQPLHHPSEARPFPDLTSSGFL
# assay method text: In vitro assay 1: antagonism in human cell line (transactivation assay, kynurenic acid prestimulated)
# measurement parameters: Assay 1: AHR-luc Hum Antagonism IC50 [M], 150 μM kynurenic acid, 20 hours, firefly luciferase
property measured: IC50 (M)

P: C[C@@H](NC(=O)c1cc(-c2ccc(OC(F)(F)F)cc2)nn(-c2cccc(F)c2)c1=O)C(C)(C)O [Example 381]
Q: CC(O)C(C)NC(=O)c1cc(-c2ccc(Cl)c(Cl)c2)nn(-c2cccc(F)c2)c1=O (centres unmarked) [Example 304]
Q: Please choose the item with the lower IC50 value from this pair: P and Q Field: selected label. Fill in the label of the entry you choose.
Result: P
(P: 4.7e-08 M, Q: 2.75e-07 M)

P: O=C(NCC(O)C(F)(F)F)c1cc(-c2ccc(OC(F)F)cc2)nn(-c2cccc(F)c2)c1=O (single isomer, unassigned) [Example 121]
Q: O=C(NC(CO)C1CCCO1)c1cc(-c2ccc(C(F)(F)F)cc2)nn(-c2cccc(F)c2)c1=O (single isomer, unassigned) [Example 354]
Q: Please choose the item with the lower IC50 value from this pair: P and Q Field: selected label. Fill in the label of the entry you choose.
Result: Q
(Q: 1.41e-08 M, P: 3.42e-08 M)

Source: patent US11040035B2
